molecular target: acetylcholinesterase (Mus musculus, UniProt P21836)
Structures can show the parent of a compound that is named as a salt.
# pIC50 annotations
Scale: negative log10 of molar concentration, which is what pIC50 denotes.

// output pIC50; input Cc1ccc2c(C(=O)C=CC3CCN(Cc4ccccc4)CC3)nn(C)c2c1 ; system acetylcholinesterase (Mus musculus, UniProt P21836) 7.85

Report measured pIC50 on acetylcholinesterase (Mus musculus, UniProt P21836); entry: Cn1cc(C(=O)CCC2CCN(Cc3cccc(F)c3)CC2)c2ccccc21 8.10

Look up and report pIC50, with acetylcholinesterase (Mus musculus, UniProt P21836) as system, for Cn1cc(C(=O)CCC2CCN(Cc3cccc(Cl)c3)CC2)c2cc(Cl)ccc21 [Compound No. 1-304, hydrochloride] 8.12

Provide pIC50, system acetylcholinesterase (Mus musculus, UniProt P21836), entry Cn1cc(C(=O)CCC2CCN(Cc3cccs3)CC2)c2ccccc21 8.00

State, for acetylcholinesterase (Mus musculus, UniProt P21836), measured pIC50 of the compound listed here: Cn1nc(C(=O)C=CC2CCN(Cc3ccccc3)CC2)c2c(Cl)cccc21 7.96

Next:
Answer briefly: pIC50 recorded on acetylcholinesterase (Mus musculus, UniProt P21836) for Cn1nc(C(=O)CCC2CCN(Cc3ccccc3)CC2)c2ccccc21 [Compound No. 2-2] 8.00

// output pIC50; input CCc1ccc2c(C(=O)CCC3CCN(Cc4ccccc4)CC3)cn(C)c2c1 ; system acetylcholinesterase (Mus musculus, UniProt P21836) 8.40

Answer briefly: pIC50 recorded on acetylcholinesterase (Mus musculus, UniProt P21836) for Cn1cc(C(=O)CCC2CCN(Cc3cccc(F)c3)CC2)c2cc(Cl)ccc21 8.09

Give pIC50; test system acetylcholinesterase (Mus musculus, UniProt P21836); compound Cn1nc(C(=O)CCC2CCN(Cc3ccccc3Cl)CC2)c2ccccc21 [Compound No. 2-96, hydrochloride] 7.86

State recorded pIC50 with acetylcholinesterase (Mus musculus, UniProt P21836), entry Cn1cc(C(=O)CCC2CCN(Cc3ccccc3)CC2)c2cc(F)ccc21 , no comment. 8.40

For acetylcholinesterase (Mus musculus, UniProt P21836), give pIC50 of the listed compound: Cc1ccc2c(c1)c(C(=O)CCC1CCN(Cc3ccccc3)CC1)nn2C 7.89

Output reported pIC50 of the compound Cn1cc(C(=O)CCC2CCN(Cc3cccc(F)c3)CC2)c2cc(F)ccc21 [Compound No. 1-314, hydrochloride] on acetylcholinesterase (Mus musculus, UniProt P21836). 8.47

Write down measured pIC50 (acetylcholinesterase (Mus musculus, UniProt P21836)) for this compound. Cn1nc(C(=O)CCC2CCN(Cc3ccccc3)CC2)c2ccccc21 [Compound No. 2-3, hydrochloride] 7.92

Given Cn1cc(C(=O)CCC2CCN(Cc3ccccc3)CC2)c2cc(Cl)ccc21 , report its pIC50 on acetylcholinesterase (Mus musculus, UniProt P21836). 8.40

---

pIC50 reference
Target: acetylcholinesterase (Mus musculus, UniProt P21836)
Sequence (P21836 32-614): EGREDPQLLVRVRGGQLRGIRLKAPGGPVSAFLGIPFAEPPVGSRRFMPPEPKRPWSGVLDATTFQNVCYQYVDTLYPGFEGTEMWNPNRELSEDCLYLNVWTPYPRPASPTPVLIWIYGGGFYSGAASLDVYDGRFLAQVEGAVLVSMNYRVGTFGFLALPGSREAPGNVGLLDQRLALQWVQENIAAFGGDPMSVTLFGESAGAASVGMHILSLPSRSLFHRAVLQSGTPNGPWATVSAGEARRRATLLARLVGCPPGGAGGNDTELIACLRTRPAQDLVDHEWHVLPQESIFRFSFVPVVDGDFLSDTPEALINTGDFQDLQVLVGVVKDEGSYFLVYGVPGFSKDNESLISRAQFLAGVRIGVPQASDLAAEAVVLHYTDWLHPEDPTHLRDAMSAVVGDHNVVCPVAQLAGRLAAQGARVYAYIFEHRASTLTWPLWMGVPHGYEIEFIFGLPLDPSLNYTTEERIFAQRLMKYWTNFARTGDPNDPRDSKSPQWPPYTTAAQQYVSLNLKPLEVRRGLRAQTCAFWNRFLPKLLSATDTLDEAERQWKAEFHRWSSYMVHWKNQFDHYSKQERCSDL
Where a name gives a salt, the structure may show the parent alone.
Please treat pIC50 as minus the base-10 logarithm of the molar concentration.

Find pIC50 for Cn1cc(C(=O)CCC2CCN(Cc3ccccc3)CC2)c2ccccc21 [Compound No. 1-4, oxalate] on acetylcholinesterase (Mus musculus, UniProt P21836) and write it down. 8.00

# lookup: acetylcholinesterase (Mus musculus, UniProt P21836) pIC50, key = Cn1nc(C(=O)CCC2CCN(Cc3ccccc3)CC2)c2c(Cl)cccc21 8.00

Find the measured pIC50 of Cn1cc(C(=O)CCC2CCN(Cc3ccccc3)CC2)c2ccc(Cl)cc21 with acetylcholinesterase (Mus musculus, UniProt P21836) as test system. 8.05

New cases:
Enter measured pIC50, system acetylcholinesterase (Mus musculus, UniProt P21836), for the compound shown: Cn1cc(C(=O)CCC2CCN(Cc3cccc(F)c3)CC2)c2cc(F)ccc21 [Compound No. 1-313] 8.70

Look up and report pIC50, with acetylcholinesterase (Mus musculus, UniProt P21836) as system, for Cn1cc(C(=O)CCC2CCN(Cc3ccccc3)CC2)c2ccccc21 [Compound No. 1-2] 8.48
